Target: T1, New Delhi metallo-β-lactamase-1 (NDM-1), without signal peptide, amino-terminal histidine tag (RED-tris-NTA second-generation dye on the His-tag (in the MST assay))
T1 construct: NDM-1 with the signal peptide deleted; also called apo-NDM-1; purified NDM-1; source: E. coli BL21 (DE3), pET30a, purified (Ni-IDA); apo form by dialysis against EDTA; not shown: His6, N-terminal, kept
T1 chain: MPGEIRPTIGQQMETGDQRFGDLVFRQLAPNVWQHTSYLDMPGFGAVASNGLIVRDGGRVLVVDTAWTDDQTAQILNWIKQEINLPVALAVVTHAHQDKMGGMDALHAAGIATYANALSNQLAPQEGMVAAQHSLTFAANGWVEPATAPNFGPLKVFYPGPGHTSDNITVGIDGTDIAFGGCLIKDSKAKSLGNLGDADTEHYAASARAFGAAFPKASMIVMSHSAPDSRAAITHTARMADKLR
Experiment: MST; RED-tris-NTA-labelled apo-NDM-1 (100 nM, mixed 1:1) with serially diluted thanatin; 50 mM HEPES pH 6.8, 0.05% Tween-20; 30 min at room temperature; Monolith NT.115 Pico, medium MST power
Conditions: both partners purified
Bridge positions count the residues as written; N and C are the ends. Ends that are not written are not given here.
Endpoint Name: Kd

Binder	Reported Measurement
GSKKPVPIIYCNRRTGKCQRM (disulfide 11-18, thanatin, inducible 21-residue insect peptide; source: synthetic peptide (solid-phase, Fmoc), purified by reverse-phase HPLC to over 98%) [Thanatin]	~710 nM
